The measured values listed here are drawn from patent US8816090B2.

biological target: Human 5-HT4(d) (Homo sapiens); construct: expressed in transfected cells; test: Agonist-induced cAMP elevation in human 5-HT4(d) transfected HEK293 cells; assay type: cell-based; conditions: HEK293; cAMP production normalized to the amount produced by 1,000 nM serotonin
Sequence (Q13639 1-360 isoform Q13639-3): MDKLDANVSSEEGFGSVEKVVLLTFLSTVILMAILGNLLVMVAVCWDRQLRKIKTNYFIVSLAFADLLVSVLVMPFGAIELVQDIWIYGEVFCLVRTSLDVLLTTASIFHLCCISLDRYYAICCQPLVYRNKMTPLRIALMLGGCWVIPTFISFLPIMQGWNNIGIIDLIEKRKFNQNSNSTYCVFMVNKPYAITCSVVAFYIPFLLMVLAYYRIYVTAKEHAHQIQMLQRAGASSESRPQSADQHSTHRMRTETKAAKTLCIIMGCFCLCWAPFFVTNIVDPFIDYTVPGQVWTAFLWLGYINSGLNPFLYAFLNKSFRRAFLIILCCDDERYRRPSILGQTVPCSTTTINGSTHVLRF
Where a name gives a salt, the structure may show the parent alone.
readoutType: Emax (%)

{"molecule": "CC(C)COc1cccc2onc(OCC3CCN(CC(C)(C)C(=O)O)CC3)c12", "system": "Human 5-HT4(d) (Homo sapiens)", "testResult": 29}
{"molecule": "O=C(O)C1(CN2CCC(COc3noc4cccc(O[C@H]5CCC[C@@H]5O)c34)CC2)CCCC1 (relative stereo)", "system": "Human 5-HT4(d) (Homo sapiens)", "testResult": 51}
{"molecule": "O=C(O)C1(CCN2CCC(COc3noc4cccc(OC5CCCC5)c34)CC2)CCOCC1", "system": "Human 5-HT4(d) (Homo sapiens)", "testResult": 41}
{"molecule": "O=C1CCCC1Oc1cccc2onc(OCC3CCN(CC4(O)CCOCC4)CC3)c12 (stereo not drawn)", "system": "Human 5-HT4(d) (Homo sapiens)", "testResult": 40}
{"molecule": "CC(C)COc1cccc2onc(OCC3CCN(CC4(O)CCOCC4)CC3)c12 [Example 8, p-toluenesulfonate salt]", "system": "Human 5-HT4(d) (Homo sapiens)", "testResult": 39}
{"molecule": "CC(C)COc1cccc2onc(OCCC3CCN(CC4(C(=O)O)CCOCC4)CC3)c12", "system": "Human 5-HT4(d) (Homo sapiens)", "testResult": 32}
{"molecule": "O=C(O)C1(CN2CCC(COc3noc4cccc(O[C@H]5CC[C@@H](CO)CC5)c34)CC2)CCOCC1", "system": "Human 5-HT4(d) (Homo sapiens)", "testResult": 45}
{"molecule": "O=C(O)C1(CN2CCC(COc3noc4cccc(OC5CCCC5)c34)CC2)CCOCC1", "system": "Human 5-HT4(d) (Homo sapiens)", "testResult": 52}
{"molecule": "O[C@H]1CCC[C@@H]1Oc1cccc2onc(OCC3CCN(CC4(O)CCOCC4)CC3)c12 (relative stereo)", "system": "Human 5-HT4(d) (Homo sapiens)", "testResult": 40}
{"molecule": "O=C(O)C1(CN2CCC(COc3noc4cccc(O[C@H]5CC[C@@H](CO)CC5)c34)CC2)CCCC1", "system": "Human 5-HT4(d) (Homo sapiens)", "testResult": 43}
{"molecule": "O=C(O)C1(CN2CCC(COc3noc4cccc(OCC5(CO)CCC5)c34)CC2)CCOCC1", "system": "Human 5-HT4(d) (Homo sapiens)", "testResult": 40}
{"molecule": "O=C(O)C1(CN2CCC(COc3noc4cccc(OCC5(CO)CCCC5)c34)CC2)CCC1", "system": "Human 5-HT4(d) (Homo sapiens)", "testResult": 41}
{"molecule": "CC(C)COc1cccc2onc(NCC3CCN(CC4(C(=O)O)CCOCC4)CC3)c12", "system": "Human 5-HT4(d) (Homo sapiens)", "testResult": 55}
{"molecule": "O=C(O)[C@H]1CC[C@H](CN2CCC(COc3noc4cccc(OC5CCOCC5)c34)CC2)CC1", "system": "Human 5-HT4(d) (Homo sapiens)", "testResult": 70}
{"molecule": "CC(C)COc1cccc2onc(OCC3CCN(CC4(C(=O)O)CCCC4)CC3)c12", "system": "Human 5-HT4(d) (Homo sapiens)", "testResult": 36}
{"molecule": "CC(C)COc1cccc2onc(OCC3CCN(CCC4(C(=O)O)CCOCC4)CC3)c12", "system": "Human 5-HT4(d) (Homo sapiens)", "testResult": 54}
{"molecule": "O=C(O)[C@H]1CC[C@H](CN2CCC(COc3noc4cccc(O[C@H]5CC[C@@H](O)CC5)c34)CC2)CC1", "system": "Human 5-HT4(d) (Homo sapiens)", "testResult": 55}
{"molecule": "CC(C)(CN1CCC(COc2noc3cccc(OCC(F)(F)F)c23)CC1)C(=O)O", "system": "Human 5-HT4(d) (Homo sapiens)", "testResult": 34}
{"molecule": "O[C@H]1CC[C@H](Oc2cccc3onc(OCC4CCN(CC5(O)CCOCC5)CC4)c23)C1 (relative stereo)", "system": "Human 5-HT4(d) (Homo sapiens)", "testResult": 56}
{"molecule": "O=C(O)C(F)(F)CN1CCC(COc2noc3cccc(OCC(F)(F)F)c23)CC1", "system": "Human 5-HT4(d) (Homo sapiens)", "testResult": 30}
{"molecule": "O=C(O)C1(CN2CCC(COc3noc4cccc(OCC5CCC5)c34)CC2)CCC1", "system": "Human 5-HT4(d) (Homo sapiens)", "testResult": 50}
{"molecule": "CO[C@H]1CCC[C@@H]1Oc1cccc2onc(OCC3CCN(CC4(O)CCOCC4)CC3)c12 (relative stereo)", "system": "Human 5-HT4(d) (Homo sapiens)", "testResult": 56}
{"molecule": "CC(C)COc1cccc2onc(OCC3CCN(CC4(C(=O)O)CCC4)CC3)c12", "system": "Human 5-HT4(d) (Homo sapiens)", "testResult": 45}
{"molecule": "CC(C)COc1cccc2onc(OCC3CCN(C[C@H]4CC[C@H](C(=O)O)CC4)CC3)c12", "system": "Human 5-HT4(d) (Homo sapiens)", "testResult": 41}
{"molecule": "O=C(O)C1(CN2CCC(COc3noc4cccc(OCC(F)(F)F)c34)CC2)CCOCC1", "system": "Human 5-HT4(d) (Homo sapiens)", "testResult": 69}
{"molecule": "O=C(O)C1(CN2CCC(COc3noc4cccc(OCC5CCC5)c34)CC2)CCCC1", "system": "Human 5-HT4(d) (Homo sapiens)", "testResult": 41}
{"molecule": "O=C(O)C1(CN2CCC(COc3noc4cccc(OCC(F)(F)F)c34)CC2)CCC1", "system": "Human 5-HT4(d) (Homo sapiens)", "testResult": 47}
{"molecule": "CC(C)(CN1CCC(COc2noc3cccc(OCC4CCC4)c23)CC1)C(=O)O", "system": "Human 5-HT4(d) (Homo sapiens)", "testResult": 45}
{"molecule": "O=C(O)C1(CN2CCC(COc3noc4cccc(OC5CCOCC5)c34)CC2)CCCCC1", "system": "Human 5-HT4(d) (Homo sapiens)", "testResult": 88}
{"molecule": "O=C(O)C1(CN2CCC(COc3noc4cccc(OCC5CCCC5)c34)CC2)CCOCC1", "system": "Human 5-HT4(d) (Homo sapiens)", "testResult": 73}
{"molecule": "O=C(O)C1(CN2CCC(CNc3noc4cccc(OCC(F)(F)F)c34)CC2)CCOCC1", "system": "Human 5-HT4(d) (Homo sapiens)", "testResult": 59}
{"molecule": "O=C(O)C1(CN2CCC(COc3noc4cccc(OCC5(CO)CCCC5)c34)CC2)CCOCC1", "system": "Human 5-HT4(d) (Homo sapiens)", "testResult": 33}
{"molecule": "O=C(O)C1(CCN2CCC(COc3noc4cccc(OCC5CCCC5)c34)CC2)CCOCC1", "system": "Human 5-HT4(d) (Homo sapiens)", "testResult": 77}
